System: UO-31 renal
Test: NCI tumour cell line growth inhibition, 48 h
For each record, write down the corresponding GI50.

Input: Any idea what its GI50 is? The molecule is COc1ccc(OC)c(-c2cn3nc(-c4c[nH]c5ccc(Br)cc45)sc3n2)c1
Output: 1670 nM

Input: Any idea what its GI50 is? The molecule is COc1ccc(-n2nc(C)c3c(Nc4ccc(NC(=O)Nc5cc(C(F)(F)F)ccc5F)cc4)ncnc32)cc1
Output: 1790 nM

Input: Any idea what its GI50 is? The molecule is CC(C)(C)c1ccc(NC(=O)c2cc(=O)c3ccccc3[nH]2)c(C(C)(C)C)c1O
Output: 5150 nM

Input: Any idea what its GI50 is? The molecule is C[C@]1(O)CC(=O)[C@]2(O)C3=C(C=C[C@]2(O)C1)C(=O)c1c(O)cccc1C3=O
Output: 1230 nM

Input: Any idea what its GI50 is? The molecule is Cc1cc(C)c(S(=O)(=O)Oc2ccccc2[N+](=O)[O-])c(C)c1
Output: 3270 nM

---

Tested on: OVCAR-3 ovarian
Test: NCI tumour cell line growth inhibition, 48 h
Readout Type: log10 of TGI (log10 of the value in µM)
Would you kindly interpret these values as log10 of TGI expressed in µM?

Input: Any idea what its log10 of TGI is? The compound is COc1ccc(CNCCCN2C(=O)c3ccc4c5c(ccc(c35)C2=O)C(=O)N(CCCNCCCCNCCCN)C4=O)c(OC)c1OC
Output: 0.39

Input: Any idea what its log10 of TGI is? The compound is CCCCCCCCOC(=O)c1cc(O)c(O)c(O)c1
Output: 1.17

Input: Any idea what its log10 of TGI is? The compound is NC(Cc1ccc2oc3cc(=O)c4ccccc4c-3nc2c1)C(=O)O (configuration not stated)
Output: 1.91

Input: Any idea what its log10 of TGI is? The compound is CCCCC/C=C1\CCC(CN2CCOCC2)C1=O (configuration not stated)
Output: 1.09

Input: Any idea what its log10 of TGI is? The compound is CC(=O)[CH-]C(=O)c1ccccc1.CC(=O)[CH-]C(=O)c1ccccc1.[O-]c1ccc(O)cc1.[O-]c1ccc(O)cc1.[Ti+4]
Output: 1.43

Input: Any idea what its log10 of TGI is? The compound is CN([N-]C(=O)CC(=O)[N-]N(C)C(=S)c1ccccc1)C(=S)c1ccccc1.[Cu+2]
Output: -1.52

Input: Any idea what its log10 of TGI is? The compound is CN1C(=O)c2cccc3c([N+](=O)[O-])ccc(c23)C1=O
Output: 1.06

Input: Any idea what its log10 of TGI is? The compound is COC(=O)/C=C\C1C(C(=O)OC)C2(C(=O)OC)CCC1(C(=O)OC)N2 (configuration not stated)
Output: 1.46

Input: Any idea what its log10 of TGI is? The compound is COc1cc2c(c(OC)c1OC)C(=O)c1c-2n(CCCN)c(=O)c2cc([N+](=O)[O-])ccc12
Output: 0.38

---

Tested on: RXF 393 renal
Test: NCI tumour cell line growth inhibition, 48 h; in the data active = GI50 below about 0.43 µM; inactive = the rest
Assign a class; possible classes are TRUE = active, FALSE = inactive

Input: I'd appreciate the recorded outcome for COc1cc2c(cc1OCCN1C(=O)c3cccc4cccc(c34)C1=O)N=C[C@@H]1CCCN1C2=O from this test.
Output: FALSE

Input: I'd appreciate the recorded outcome for COc1ccc(-n2nc(C)c3c(Nc4ccc(NC(=O)Nc5cc(C(F)(F)F)ccc5F)cc4)ncnc32)cc1 from this test.
Output: FALSE

Input: I'd appreciate the recorded outcome for CN1CCN(c2ccc3nc(-c4ccc5nc(-c6ccc(C(F)(F)F)cc6)[nH]c5c4)[nH]c3c2)CC1 from this test.
Output: FALSE

Input: I'd appreciate the recorded outcome for CCN(CCc1ccc(F)cc1)c1ccc(CO)c(Cl)c1 from this test.
Output: FALSE

Input: I'd appreciate the recorded outcome for C[C@]1(O)CC(=O)[C@]2(O)C3=C(C=C[C@]2(O)C1)C(=O)c1c(O)cccc1C3=O from this test.
Output: FALSE

Input: I'd appreciate the recorded outcome for COc1ccccc1NC(=O)N/C(N)=N/c1nc2ccccc2s1 from this test.
Output: TRUE

Input: I'd appreciate the recorded outcome for O=C1c2ccccc2C(=O)c2c1c(NCCNCCO)c1cc[nH]c1c2NCCNCCO from this test.
Output: FALSE

Input: I'd appreciate the recorded outcome for Cc1ccc2nc(NC(=O)CSC(=S)N3CCN(Cc4ccccc4)CC3)sc2c1 from this test.
Output: FALSE

Origin of the recorded values: PubChem BioAssay (NCI)
